Molecular target: Sentrin-specific protease 7 (Homo sapiens) (UniProt Q9BQF6)
Assay: SENP7 protease inhibitors, primary screen, biochemical, luminescence, uHTS (AID 434973);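 also: plate controls were DMSO with enzyme for no effect and no enzyme buffer wells for full effect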
Conditions: recombinant SENP7, Z-RLRGG-aminoluciferin luminescence, 40 min; at 5 µM; stronger effect = higher value
Out of some 330,000 compounds screened, about 4,900 (1.5%) were called active. The sample holds actives, similar compounds and a random draw of the others, so the mix is not that of the screen. Non-standard residues stand in square brackets, D forms with d. Residues, ends and D or L forms follow the SMILES beside them. ξ: configuration not given here. *: point of attachment. Cbz = O=C(OCc1ccccc1)*; ξL = CC(C)CC(N)C(=O)O; ξP = O=C(O)C1CCCN1
property: inhibition (%)
Please give a number only; it is taken to be in %.

CCCS(=O)(=O)N1CCC(C(=O)NCCCN(C)Cc2ccccc2)CC1 = -8.04
Cc1csc(SCC(=O)Nc2sccc2C#N)n1 = 94
COc1ccc(CNC(=O)COC(=O)c2c(C)nn(-c3ccccc3)c2C)cc1OC = 4.03
Cc1ccc(NC(=O)CSCC(=O)Nc2sccc2C#N)cc1 = 1.52

input: Any idea what its inhibition is? The compound is `CCCc1nc2oc3c(OCC)ncnc3c2c2c1COC(C)(C)C2`
output: -3.93

input: Thanks! And CC(C)CC(NC(=O)C1CCCN1C(=O)[C@@H](C)NC(=O)OCc1ccccc1)C(=O)NCC(N)=O (some centres not stated) (Cbz-[dA][ξP][ξL]G-NH2) ?
output: 8.74

input: Try the compound `O=C(Nc1ccccc1)c1ccc2nsnc2c1`
output: 35.8

input: // repeat for `O=C(Nc1ccccc1Cl)c1ccc2nsnc2c1` and report
output: 50.7

input: Also, `COc1ccccc1N(CC(=O)Nc1ccccc1C(=O)N1CCCC1)S(C)(=O)=O` please.
output: 5.42
